System: A498 renal
TEST DETAILS: NCI-60 one-dose screen, 48 h (100 = growth as untreated, 0 = no growth, -100 = all killed)
CONDITION NOTES: 10 µM unless noted
Protocol: Growth inhibition of the A498 human tumor cell line is measured as a screen for anti-cancer activity. Cells are grown in 96 well plates and exposed to the test compound for 48 hours. Compounds are tested at a single concentration, which is 10^-5 M for most compounds. The reported endpoint is percent growth (GI% or GIPRCNT), where numbers from 0 - 100% represent growth inhibition, and numbers from -100% - 0 represent cell death. For example, a value of 40 represents 60% growth inhibition. […]
This is part of a sample that, as a whole, favours compounds with a hit. Of some 83,000 tested, about 20% had one in any assay.
Hi! Could you tag entries with growth below 60% as Fulfilled, and those at or above as Not fulfilled? Much appreciated.

Data request: Does the reported growth of O=C(Nc1cccc(-n2ccc3c(NC(=O)c4ccccc4)ncnc32)c1)Nc1ccc(Cl)c(C(F)(F)F)c1 stay below 60%?
Data returned: Fulfilled

Data request: # check: growth < 60% for COc1ccc(/C(Cl)=N/N=C(\Cl)c2cc(OC)c(OC)c(OC)c2)cc1OC(C)=O
Data returned: Not fulfilled

Data request: Is the reported growth for FC(F)(F)c1cn(CCN2CCOCC2)c2ncnc(Cl)c12 strictly below 60%?
Data returned: Not fulfilled

Data request: Find out if reported growth for CCOC(=O)CSc1nnc(-c2cc3c([nH]c4ccccc43)c(-c3cccc(O)c3)n2)n1-c1ccc(C)cc1 is less than 60%
Data returned: Not fulfilled

Attribution: PubChem BioAssay (NCI)
